Overview of recorded CC50 at 72 h for various molecules
# assay text: DNS cytotoxicity assay, MCF10A
# Assay type: cell-based
# experimental setup: human, MCF10A non-cancerous cells, 72 hr incubations, read-out: Cell Line CC50 MCF10A*
# Experimental: Since the non-adherent (free floating) lymphoma/leukemia cell lines divide faster than the adherent cell lines, they were incubated for a shorter period (48 h) of time with the compound.

| smiles code | CC50 at 72 h, nM |
| --- | --- |
| O=C(N/N=C/c1ccc(Br)cc1)c1n[nH]c2c1CCC2 | 420 |
| O=C(N/N=C/c1cccc2ccccc12)c1n[nH]c2c1CCC2 | 530 |
| O=C(N/N=C/c1ccccc1Br)c1n[nH]c2c1CCC2 | 6360 |
| O=C(N/N=C/c1c(O)ccc2ccccc12)c1n[nH]c2c1CCCC2 | 2160 |
| O=C(N/N=C/c1cc(Br)cc(Br)c1O)c1n[nH]c2c1CCC2 | 5850 |
| COc1ccc(/C=N/NC(=O)c2n[nH]c3c2CCC3)cc1O | 2460 |
| CCN(CC)c1ccc(/C=N/NC(=O)c2n[nH]c3c2CCC3)cc1 | 2460 |
